Test: Aqueous solubility of the compound at pH 7.4
Assay type: physicochemical
Conditions: buffer

- mol: "COc1cccc(C(=O)N[C@H]2C[C@@](N)(C(=O)O)[C@@H]3[C@@H](C(=O)O)[C@@H]32)c1"
  solubility: "> 100 µM"

====

Assay: AUC in Sprague-Dawley rat at 3 mg/kg, sc measured over 8 hrs by LC-MS/MS analysis
Type: ADME, organism-based
Set-up: dose 3 mg/kg, time < 8 hr, route subcutaneous
Settings: in vivo

- mol: "COc1cccc(C(=O)N[C@H]2C[C@@](N)(C(=O)O)[C@@H]3[C@@H](C(=O)O)[C@@H]32)c1"
  units: "µM·h"
  AUC at 8 h: 9.88
